test system: HCV GT1b replicon; assay: HCV GT1b replicon luciferase reporter assay (2209-23 cells); assay type: cell-based; conditions: Hepatitis C virus, genotype 1a / genotype 1b; 2209-23 cells (Huh-7 with GT-1b Con1 subgenomic replicon), Renilla luciferase read 72 hours after compound addition; read-out: GT-1a - EC50 (nM) HCV, GT1b, IC50 (µM)
Item-by-item account of IC50
Please give a number only; it is taken to be in nM.

- CHEMICAL STRING: "O=C(N[C@H]1C[C@@H](C(=O)N2CCC2)N(CC2CCCCC2)C1)c1ccc2ccccc2c1O"
  IC50, nM: 826

**Q:** Query for HCV GT1b replicon: what IC50 does the record show for `CCOC(=O)[C@@H]1C[C@H](NC(=O)c2ccc3ccccc3c2O)CN1C(=O)C1CCCCC1` ?
**A:** 184

**Q:** Query for HCV GT1b replicon: what IC50 does the record show for `CCOC(=O)[C@@H]1C[C@H](NC(=O)c2ccc3ccccc3c2O)CN1CC1CCC1` ?
**A:** 219

**Q:** Query for HCV GT1b replicon: what IC50 does the record show for `CCNC(=O)[C@@H]1C[C@H](NC(=O)c2ccc3ccccc3c2O)CN1CC1CCCCC1` ?
**A:** 221

**Q:** Query for HCV GT1b replicon: what IC50 does the record show for `O=C(N[C@H]1C[C@@H](C(=O)N2CCCC2)N(CC2CCCCC2)C1)c1ccc2ccccc2c1O` ?
**A:** 640
